Target: T1, AurA-DN (unphosphorylated Aurora-A 122–403 D274N) (UniProt O14965 122-403, D274N)
T1 sequence: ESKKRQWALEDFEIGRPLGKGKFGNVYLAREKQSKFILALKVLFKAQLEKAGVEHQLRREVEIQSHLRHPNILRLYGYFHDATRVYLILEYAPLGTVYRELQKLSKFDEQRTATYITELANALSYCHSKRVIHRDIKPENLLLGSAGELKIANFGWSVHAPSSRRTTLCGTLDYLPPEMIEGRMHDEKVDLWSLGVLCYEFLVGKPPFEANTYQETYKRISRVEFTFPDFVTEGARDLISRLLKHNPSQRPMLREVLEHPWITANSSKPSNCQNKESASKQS
Assay: NMR; residue pair 520/521
pKd: −log10 of the molar value.

Binder	pKd
ELKEESFRDPAEVLGTGAEVDYLEQFGTSSFKESALRKQSLYLKF (domain or fragment, UniProt Q9Y6A5 519-563, looked up, also called ^15N-labelled TACC3act; source: recombinant, expressed from pETM6T1, purified (SEC); 15N- or 15N/13C-labelled for NMR) [TACC3act (human TACC3 residues 519–563)]	5.12
